- Tested on: EFM19
- PROTOCOL: GRmax, 72 h; higher = less effect
Exercise: state measured GRmax, 72 h for each of the compounds provided.

input: Request the reported GRmax, 72 h associated with CN(C)CC[C@H](CSc1ccccc1)Nc1ccc(S(=O)(=O)NC(=O)c2ccc(N3CCN(Cc4ccccc4-c4ccc(Cl)cc4)CC3)cc2)cc1[N+](=O)[O-] [ABT-737] (max 10 µM)
output: 0.475 GR

input: Request the reported GRmax, 72 h associated with CN1CC[C@H](c2c(O)cc(O)c3c(=O)cc(-c4ccccc4Cl)oc23)[C@H](O)C1 [Flavopiridol] (max 1 µM)
output: -0.21 GR

input: Request the reported GRmax, 72 h associated with CN1CCN(C(=O)c2ccc3cc(CCNc4ncnc5ccc(C#N)cc45)ccc3c2)CC1 [senexin b] (max 10 µM)
output: 0.629 GR

input: Request the reported GRmax, 72 h associated with `COc1ccc2c(c1)[C@]1(C[C@H]1c1ccc3c(/C=C/c4ccc(CN5C[C@@H](C)O[C@@H](C)C5)cc4)n[nH]c3c1)C(=O)N2`
output: 0.146 GR

input: Request the reported GRmax, 72 h associated with CNCc1ccc(-c2[nH]c3cc(F)cc4c3c2CCNC4=O)cc1 [Rucaparib] (max 10 µM)
output: 0.96 GR

input: Request the reported GRmax, 72 h associated with Nc1ccc(-c2ccc3ncc4ccc(=O)n(-c5cccc(C(F)(F)F)c5)c4c3c2)cn1 [Torin2] (max 1 µM)
output: -0.0622 GR

input: Request the reported GRmax, 72 h associated with CO[C@@H](C)Cn1c(=O)n(C)c2cnc3ccc(-c4cncc(C(C)(C)O)c4)cc3c21 (max 10 µM)
output: -0.255 GR

###

- System: BT474
- PROTOCOL: GRmax, 72 h; higher = less effect
Criterion: GRmax, 72 h meeting or surpassing -0.4 GR. Met: TRUE. Not met: FALSE.

input: Answer whether GRmax, 72 h of `CCC(=O)Nc1ccc(C(=O)Nc2ccc(Nc3ncc4c(n3)N(C)c3ccc(C)cc3C(=O)N4C)cc2)cc1` is greater than or equal to -0.4 GR.
output: TRUE

input: Answer whether GRmax, 72 h of CN(C)C/C=C/C(=O)Nc1ccc(O[C@@H]2CCC[C@@H](Nc3ncc(Cl)c(-c4c[nH]c5ccccc45)n3)C2)cc1 [BSJ-01-175] (max 10 µM) is greater than or equal to -0.4 GR.
output: FALSE

input: Answer whether GRmax, 72 h of NC(=O)Nc1cc(-c2cccc(F)c2)sc1C(=O)N[C@H]1CCCNC1 [AZD7762] (max 10 µM) is greater than or equal to -0.4 GR.
output: TRUE

input: Answer whether GRmax, 72 h of COc1cc2c(Oc3ccc4[nH]c(C)cc4c3F)ncnc2cc1OCCCN1CCCC1 [Cediranib/AZD2171] (max 10 µM) is greater than or equal to -0.4 GR.
output: TRUE

input: Answer whether GRmax, 72 h of CN(C)C/C=C/C(=O)Nc1ccc(C(=O)N2CCC[C@@H](Nc3ncc(Cl)c(-c4c[nH]c5ccccc45)n3)C2)cc1 [THZ531] (max 1 µM) is greater than or equal to -0.4 GR.
output: FALSE

input: Answer whether GRmax, 72 h of Cc1nc(Nc2ncc(C(=O)Nc3c(C)cccc3Cl)s2)cc(N2CCN(CCO)CC2)n1 [Dasatinib] (max 10 µM) is greater than or equal to -0.4 GR.
output: FALSE

input: Answer whether GRmax, 72 h of CCc1cnn2c(NCc3ccc[n+]([O-])c3)cc(N3CCCC[C@H]3CCO)nc12 (max 1 µM) is greater than or equal to -0.4 GR.
output: FALSE

input: Answer whether GRmax, 72 h of `COc1cc(N2CCN(C)CC2)ccc1Nc1ncc2c(n1)N(C)c1ccccc1C(=O)N2CC(F)(F)F` is greater than or equal to -0.4 GR.
output: TRUE

###

- Tested on: UACC893
- PROTOCOL: GRmax, 72 h; higher = less effect
VALUE TYPE: GRmax, 72 h (GR)
Response body: numeric value in GR, unit text excluded.

input: Request the reported GRmax, 72 h associated with CCCCOc1c(C(=O)c2c(F)cc(C)cc2F)c[nH]c2nncc1-2 (max 10 µM)
output: 0.117

input: Request the reported GRmax, 72 h associated with CC1(N)CCN(c2cnc(-c3cccc(Cl)c3Cl)c(N)n2)CC1 [SHP099] (max 10 µM)
output: 0.703

input: Request the reported GRmax, 72 h associated with C=CCn1c(=O)c2cnc(Nc3ccc(N4CCN(C)CC4)cc3)nc2n1-c1cccc(C(C)(C)O)n1 [AZD1775] (max 10 µM)
output: -0.42

input: Request the reported GRmax, 72 h associated with CCc1cncnc1N1CCN(Cc2nc3ccc(C(F)(F)F)cc3[nH]2)CC1 (max 10 µM)
output: 0.351

input: Request the reported GRmax, 72 h associated with CS(=O)(=O)N1CCN(Cc2cc3nc(-c4cccc5[nH]ncc45)nc(N4CCOCC4)c3s2)CC1 [Pictilisib/GDC0941] (max 10 µM)
output: -0.878

input: Request the reported GRmax, 72 h associated with O=C(CCCCCCC(=O)Nc1ccccc1)NO [Vorinostat] (max 10 µM)
output: -0.337

input: Request the reported GRmax, 72 h associated with CC[C@@H]1C(=O)N(C)c2cnc(Nc3ccc(C(=O)N[C@H]4CC[C@H](N5CCN(CC6CC6)CC5)CC4)cc3OC)nc2N1C(C)C [Volasertib/BI6727] (max 1 µM)
output: -0.424

###

- Test system: MDAMB175VII
- PROTOCOL: GRmax, 72 h; higher = less effect;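 further: breast cell lines in 384-well plates, nine doses across a 10^4 range, Dye Drop imaging of viable cells vs DMSO and time-zero plates, GR 0 means no net growth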
Exercise: state measured GRmax, 72 h for each of the molecules provided.
Response body: numeric value in GR, unit text excluded.

input: Request the reported GRmax, 72 h associated with Nc1cc(C(F)(F)F)c(-c2cc(N3CCOCC3)nc(N3CCOCC3)n2)cn1 [Buparlisib/NVP-BKM120] (max 10 µM)
output: -0.976

input: Request the reported GRmax, 72 h associated with Cc1nc(NC(=O)N2CCC[C@H]2C(N)=O)sc1-c1ccnc(C(C)(C)C(F)(F)F)c1 [Alpelisib/BYL719] (max 10 µM)
output: -0.697

input: Request the reported GRmax, 72 h associated with CS(=O)(=O)N1CCN(Cc2cc3nc(-c4cccc5[nH]ncc45)nc(N4CCOCC4)c3s2)CC1 [Pictilisib/GDC0941] (max 10 µM)
output: -0.903

###

- Tested on: SUM149
- PROTOCOL: area over the GR curve, 72 h; higher = more effect;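 further: Dye Drop or Deep Dye Drop imaging of viable cells in 384-well plates (Hoechst nuclei, LIVE/DEAD dye), nine half-log doses, GR normalized to DMSO controls and time-zero plates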
Exercise: state measured area over the GR curve for each of the compounds provided.
# output: numeric value plus its unit

input: Request the reported area over the GR curve associated with CC(=O)O[C@H]1C(=O)[C@@]2(C)[C@H]([C@H](OC(=O)c3ccccc3)[C@]3(O)C[C@H](OC(=O)[C@H](O)[C@@H](NC(=O)c4ccccc4)c4ccccc4)C(C)=C1C3(C)C)[C@]1(OC(C)=O)CO[C@@H]1C[C@@H]2O [Paclitaxel] (max 1 µM)
output: 0.839 GR

input: Request the reported area over the GR curve associated with COc1cc2c(Oc3ccc4[nH]c(C)cc4c3F)ncnc2cc1OCCCN1CCCC1 [Cediranib/AZD2171] (max 10 µM)
output: 0.0456 GR

input: Request the reported area over the GR curve associated with O=C(c1cc(Cc2n[nH]c(=O)c3ccccc23)ccc1F)N1CCN(C(=O)C2CC2)CC1 [Olaparib/AZD2281] (max 10 µM)
output: 0.184 GR

input: Request the reported area over the GR curve associated with CCOc1cc2ncc(C#N)c(Nc3ccc(OCc4ccccn4)c(Cl)c3)c2cc1NC(=O)/C=C/CN(C)C [Neratinib/HKI272] (max 3.162 µM)
output: 0.358 GR

input: Request the reported area over the GR curve associated with CCCCOc1c(C(=O)c2c(F)cc(C)cc2F)c[nH]c2nncc1-2 (max 10 µM)
output: 0.637 GR

input: Request the reported area over the GR curve associated with CC(=O)c1c(C)c2cnc(Nc3ccc(N4CCNCC4)cn3)nc2n(C2CCCC2)c1=O (max 3.162 µM)
output: 0.19 GR

input: Request the reported area over the GR curve associated with CN(C)CC[C@H](CSc1ccccc1)Nc1ccc(S(=O)(=O)NC(=O)c2ccc(N3CCN(Cc4ccccc4-c4ccc(Cl)cc4)CC3)cc2)cc1[N+](=O)[O-] [ABT-737] (max 10 µM)
output: 0.142 GR

input: Request the reported area over the GR curve associated with CC(=O)c1c(C)c2cnc(Nc3ccc(N4CCN(CCOCCOCCOCCNC(=O)COc5cccc6c5C(=O)N(C5CCC(=O)NC5=O)C6=O)CC4)cn3)nc2n(C2CCCC2)c1=O (stereo not drawn) [BSJ-03-123] (max 10 µM)
output: 0.293 GR

input: Request the reported area over the GR curve associated with Cc1nn(C)c(COc2ccc(N3CCN(S(=O)(=O)N(C)C)CC3)cc2)c1-c1cccc2c(CCCOc3cccc4ccccc34)c(C(=O)O)n(CCN3CCOCC3)c12 (max 10 µM)
output: 0.0361 GR

input: Request the reported area over the GR curve associated with CN(C)C/C=C/C(=O)Nc1ccc(C(=O)N2CCC[C@@H](Nc3ncc(Cl)c(-c4c[nH]c5ccccc45)n3)C2)cc1 [THZ531] (max 1 µM)
output: 0.154 GR

input: Request the reported area over the GR curve associated with NC1(C(=O)N[C@@H](CCO)c2ccc(Cl)cc2)CCN(c2nc[nH]c3nccc2-3)CC1 [AZD5363] (max 10 µM)
output: 0.109 GR

input: Request the reported area over the GR curve associated with Cc1cc(C(C)Nc2ccccc2)c2nc(N3CCOCC3)cc(=O)n2c1 (stereo not drawn) [TGX221] (max 10 µM)
output: -0.0254 GR

input: Request the reported area over the GR curve associated with CC1(N)CCN(c2cnc(-c3cccc(Cl)c3Cl)c(N)n2)CC1 [SHP099] (max 10 µM)
output: 0.001 GR
